B1: SEC22B (parent)
chain: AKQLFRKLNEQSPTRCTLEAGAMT

# Variants of: B1
# method: protein stability index of a GFP-peptide fusion (GPS, HEK-293T) (PSI 1-6); higher = more stable;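 note: lentivirally expressed fusions sorted by FACS into six bins by GFP to DsRed ratio, PSI derived from sequencing read proportions per bin multiplied by bin number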
# condition.label: c terminus: a fixed tail appended
test.readout: protein stability index
One number for each entry.

// below: answered variants
Entry A1V , protein stability index reported as 2.16

protein stability index reading for A1Y : 1.89

Documented protein stability index of R6N : 2.05

Report protein stability index for every entry below.
1. E10H
2. G21N
3. Q3H

1: 2; 2: 2.18; 3: 1.93

For every item below, please supply its protein stability index.
1. L4F
2. K2N
3. T14L
4. R15Y
5. G21Y
6. A22S
7. F5I
8. R15D

1. 1.89
2. 2.72
3. 1.94
4. 2.82
5. 1.95
6. 2.27
7. 2.3
8. 4.3

Answer for every listed entry: what is its protein stability index? The entries follow.
1. C16V
2. E10I
3. R15P
4. E10Y
5. F5A
6. E19T

[2.53, 2.7, 3, 3.1, 3.67, 2.56]

Record protein stability index for all entries; do not skip any.
1. T14W
2. L18E
3. R15F
4. A1S
5. K2F
6. K2L
7. S12W

2.01
3.47
2.41
2.46
1.72
2.1
1.77

These entries and their values trace back to the supplement of paper PMC10567573.
